- Assay system: SHP2 (Homo sapiens)
- Protocol summary: SHP2 allosteric inhibitor enzyme activity assay (DiFMUP fluorescence)
- Format: biochemical
- Stated conditions: class symbols
Result type: IC50

Some compounds with recorded IC50:
N[C@@H]1c2ccccc2CC12CCN(c1nc3[nH]nc(C4(c5ccnc(-c6ccccc6)c5)CC4)c3c(=O)[nH]1)CC2 = ≤ 20 nM
N[C@@H]1c2ccccc2CC12CCN(c1nc3[nH]nc(C4=CS(=O)(=O)Nc5ccccc54)c3c(=O)[nH]1)CC2 = ≤ 20 nM

Quick one: give me IC50 for each item below, same order please.
1. N[C@@H]1c2ccccc2CC12CCN(c1nc3[nH]nc(C4=CCOc5cc(C(F)(F)F)ccc54)c3c(=O)[nH]1)CC2
2. N[C@@H]1c2ccccc2CC12CCN(c1nc3[nH]nc(C4(c5ccc(Cl)c(Cl)c5)CC4)c3c(=O)[nH]1)CC2
3. N[C@@H]1c2ccccc2CC12CCN(c1nc3[nH]nc(C4(c5ccccc5)CCOC4)c3c(=O)[nH]1)CC2 (some centres unmarked)
4. N[C@@H]1c2ccccc2CC12CCN(c1nc3[nH]nc(C4(c5cccc(O)c5Cl)CC4)c3c(=O)[nH]1)CC2
5. N#Cc1ccc(C2(c3n[nH]c4nc(N5CCC6(CC5)Cc5ccccc5[C@H]6N)[nH]c(=O)c34)CC2)cc1
6. COc1ccc(C2(c3n[nH]c4nc(N5CCC6(CC5)Cc5ccccc5[C@H]6N)[nH]c(=O)c34)CC2)c(OC)c1
7. Cc1nc2c(s1)C(c1n[nH]c3nc(N4CCC5(CC4)Cc4ccccc4C5N)[nH]c(=O)c13)=CC(C)(C)C2 (centres unmarked)

Solution:
1. ≤ 20 nM
2. ≤ 20 nM
3. 20 to 60 nM
4. ≤ 20 nM
5. ≤ 20 nM
6. ≤ 20 nM
7. 20 to 60 nM

Quick one: give me IC50 for each item below, same order please.
1. CC1(C)C=C(c2n[nH]c3nc(N4CCC5(CC4)Cc4ccccc4[C@H]5N)[nH]c(=O)c23)c2cnn(C3CC3)c2C1
2. N[C@@H]1c2ccccc2CC12CCN(c1nc3[nH]nc(C4=CC5(COC5)c5ccccc54)c3c(=O)[nH]1)CC2
3. Cn1ccc2c(C3(c4n[nH]c5nc(N6CCC7(CC6)Cc6ccccc6[C@H]7N)[nH]c(=O)c45)CC3)cccc21
4. N#Cc1cc(C2(c3n[nH]c4nc(N5CCC6(CC5)Cc5ccccc5[C@H]6N)[nH]c(=O)c34)CC2)ccn1
5. Nc1cccc(C2(c3n[nH]c4nc(N5CCC6(CC5)Cc5ccccc5[C@H]6N)[nH]c(=O)c34)CC2)c1

Solution:
["20 to 60 nM", "≤ 20 nM", "≤ 20 nM", "≤ 20 nM", "≤ 20 nM"]

====

- Assay system: SHP2 (Homo sapiens)
- Sequence (Q06124 1-593): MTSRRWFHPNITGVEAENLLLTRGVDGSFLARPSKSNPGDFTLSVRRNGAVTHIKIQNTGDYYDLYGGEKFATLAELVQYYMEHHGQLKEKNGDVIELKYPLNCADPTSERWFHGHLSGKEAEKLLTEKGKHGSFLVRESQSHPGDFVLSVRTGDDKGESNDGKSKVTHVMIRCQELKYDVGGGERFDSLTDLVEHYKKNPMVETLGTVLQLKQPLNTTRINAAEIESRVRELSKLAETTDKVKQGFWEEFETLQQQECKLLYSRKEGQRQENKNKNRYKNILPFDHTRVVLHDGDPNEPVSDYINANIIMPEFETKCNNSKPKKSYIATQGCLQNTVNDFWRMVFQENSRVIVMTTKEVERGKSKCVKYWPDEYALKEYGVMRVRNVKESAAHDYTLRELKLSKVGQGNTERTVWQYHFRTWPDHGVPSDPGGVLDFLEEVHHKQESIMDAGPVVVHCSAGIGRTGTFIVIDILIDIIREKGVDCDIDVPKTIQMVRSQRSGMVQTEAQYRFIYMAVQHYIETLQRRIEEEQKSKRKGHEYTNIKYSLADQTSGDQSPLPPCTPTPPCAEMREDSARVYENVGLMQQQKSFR
- Protocol summary: SHP2 allosteric inhibitor enzyme activity assay (DiFMUP fluorescence)
- Assay type: biochemical
- Stated conditions: class symbols
pIC50: −log10 of the molar value.
Result type: pIC50

For each of the items listed, what is its pIC50?
1. N[C@@H]1c2ccccc2CC12CCN(c1nc3[nH]nc(C4(c5ccccc5)COC4)c3c(=O)[nH]1)CC2 [Example 96]
2. N[C@@H]1c2ccccc2CC12CCN(c1nc3[nH]nc(C4(c5nccs5)CC4)c3c(=O)[nH]1)CC2 [Example 84]
3. N[C@@H]1c2ccccc2CC12CCN(c1nc3[nH]nc(C4(c5cccs5)CCC4)c3c(=O)[nH]1)CC2 [Example 94]
4. N[C@@H]1c2ccccc2CC12CCN(c1nc3[nH]nc(C4=CCC5(CC5)c5ccccc54)c3c(=O)[nH]1)CC2 [Example 132]

Solution:
≥ 7.70
≥ 7.70
≥ 7.70
≥ 7.70

Report pIC50 for every entry below.
1. C[C@@H]1OCC2(CCN(c3cnc4c(C5(c6ccccc6)CC5)c[nH]c4n3)CC2)[C@@H]1N [Example 269]
2. C[C@@H]1OCC2(CCN(c3nc4[nH]nc(C5(c6ccc(C(F)(F)F)cc6)CC5)c4c(=O)[nH]3)CC2)[C@@H]1N [Example 296]
3. CC1(C)CC=C(c2n[nH]c3nc(N4CCC5(CC4)Cc4ccccc4[C@H]5N)[nH]c(=O)c23)c2ccc(C(F)(F)F)nc21 [Example 145]

Solution:
1. < 7.22
2. < 7.22
3. ≥ 7.70

Origin of values: patent US20230192705A1
